- Target of assay: KRAS G13D antigen (G13D-RT6, SEQ ID NO: 20) loaded on Lovo-DPA0301:DPB0501 cells (human)
- Test summary: cell-based or functional assay
Measured TCR Mut RLU/WT RLU by item
Just the number please, in ratio, no unit attached.

{"Binder": "B8.2.4 TCR mutant β95Q-R (TCR, V domains shown) V domain 1: AQKITQTQPGMFVQEKEAVTLDCTYDTSDPSYGLFWYKQPSSGEMIFLIYQGSYDQQNATEGRYSLNFQKARKSANLVISASQLGDSAMYFCAMRERTGTASKLTFGTGTRLQVTL V domain 2: DVKVTQSSRYLVKRTGEKVFLECVQDMDHENMFWYRQDPGLGLRLIYFSYDVKMKEKGDIPEGYSVSREKKERFSLILESASTNQTSMYLCASSRTVPPQHFGDGTRLSILE", "Assay result": 0.43}
{"Binder": "B8.2.4 TCR mutant β98P-L (TCR, V domains shown) V domain 1: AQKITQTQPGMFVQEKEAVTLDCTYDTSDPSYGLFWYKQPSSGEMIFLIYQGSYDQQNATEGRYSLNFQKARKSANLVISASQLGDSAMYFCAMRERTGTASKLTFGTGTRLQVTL V domain 2: DVKVTQSSRYLVKRTGEKVFLECVQDMDHENMFWYRQDPGLGLRLIYFSYDVKMKEKGDIPEGYSVSREKKERFSLILESASTNQTSMYLCASSQTVLPQHFGDGTRLSILE", "Assay result": 0.67}

In plain terms, B8.2.4 TCR mutant β95Q-L (TCR, V domains shown) V domain 1: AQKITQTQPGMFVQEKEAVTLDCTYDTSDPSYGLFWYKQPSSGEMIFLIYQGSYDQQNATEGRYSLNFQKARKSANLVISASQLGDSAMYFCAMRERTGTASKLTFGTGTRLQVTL V domain 2: DVKVTQSSRYLVKRTGEKVFLECVQDMDHENMFWYRQDPGLGLRLIYFSYDVKMKEKGDIPEGYSVSREKKERFSLILESASTNQTSMYLCASSLTVPPQHFGDGTRLSILE has a documented TCR Mut RLU/WT RLU of 0.64

Ref: patent US20240123070A1
